Data origin: the supplement of paper PMC9112550

- Tested on: Escherichia coli TOP10
- Procedure summary: shrunken log2 fold change of peptide-encoding DNA abundance (4.5 h post-induction vs induction); higher = less antimicrobial activity (less host growth inhibition)
- Reported conditions: time post-induction: 4.5 h; library: site-saturation at positions 5, 18, 19, 20
Endpoint label: shrunken log2 fold change
Lab note: jot the number down without any unit.

The following sequences have reported results that may help.
{"columns": ["Seq string", "shrunken log2 fold change"],
 "data": [
  ["RRIRWRPPRLPRPRPRPGRRPRP", 0.106],
  ["RRIRRRPPRLPRPRPRPMRPPRP", 0.66],
  ["RRIRWRPPRLPRPRPRPNVYPRP", -0.234],
  ["RRIRLRPPRLPRPRPRPHQFPRP", 0.0562],
  ["RRIRLRPPRLPRPRPRPLGYPRP", -1.79]
]}

Please look up its shrunken log2 fold change: "RRIRCRPPRLPRPRPRPWLQPRP"
-0.199

So what's the measured shrunken log2 fold change for this one? "RRIRPRPPRLPRPRPRPENYPRP"
-0.283

Consider the sequence "RRIRQRPPRLPRPRPRPTPYPRP" and give its measured shrunken log2 fold change.
-0.266

====

- Tested on: Escherichia coli TOP10
- Procedure summary: shrunken log2 fold change of peptide-encoding DNA abundance (4.5 h post-induction vs induction); higher = less antimicrobial activity (less host growth inhibition)
- Reported conditions: time post-induction: 4.5 h; library: site-saturation at positions 5, 18, 19, 20
Endpoint label: shrunken log2 fold change
Form rule: numeric answer, no unit written next to it.

{"columns": ["Seq string", "System", "shrunken log2 fold change"],
 "data": [
  ["RRIRPRPPRLPRPRPRPEHVPRP", "Escherichia coli TOP10", 0.0556],
  ["RRIRNRPPRLPRPRPRPWCPPRP", "Escherichia coli TOP10", -0.752],
  ["RRIRQRPPRLPRPRPRPDSKPRP", "Escherichia coli TOP10", -0.146],
  ["RRIRYRPPRLPRPRPRPNGTPRP", "Escherichia coli TOP10", -0.424],
  ["RRIRIRPPRLPRPRPRPFHIPRP", "Escherichia coli TOP10", -0.127]
]}

Requested read-out: shrunken log2 fold change. Entry: "RRIRNRPPRLPRPRPRPAPWPRP"
0.266

Query: shrunken log2 fold change; subject: "RRIRFRPPRLPRPRPRPQFRPRP"
-0.174

Suppose we examine the sequence "RRIRFRPPRLPRPRPRPCYQPRP" ; what shrunken log2 fold change value has been reported?
-0.229

Recorded shrunken log2 fold change for "RRIRMRPPRLPRPRPRPCTWPRP" , please?
-0.0287

Look up shrunken log2 fold change: "RRIRIRPPRLPRPRPRPMCDPRP"
-0.356

Looking for the measured shrunken log2 fold change of "RRIRGRPPRLPRPRPRPMIPPRP" , can you help?
-0.219

I have this sequence here, "RRIRIRPPRLPRPRPRPHAMPRP" , and I need its recorded shrunken log2 fold change.
-0.125

====

- Tested on: Escherichia coli TOP10;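 also: peptides expressed intracellularly from a pBAD plasmid library in pooled LB shake-flask culture, induced with 0.3% L-arabinose, DNA abundance read by NGS, three biological replicates, DESeq2 with apeglm shrinkage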
- Procedure summary: shrunken log2 fold change of peptide-encoding DNA abundance (4.5 h post-induction vs induction); higher = less antimicrobial activity (less host growth inhibition)
- Reported conditions: time post-induction: 4.5 h; library: site-saturation at positions 5, 18, 19, 20
The following sequences are shown together with reported shrunken log2 fold change values.
In your answer, state the number alone without any accompanying words.

Worked examples, 3 sequences total:
{"columns": ["Seq string", "Experimental result"],
 "data": [
  ["RRIRARPPRLPRPRPRPVHFPRP", 0.396],
  ["RRIRQRPPRLPRPRPRPLDQPRP", -0.635],
  ["RRIRERPPRLPRPRPRPWIEPRP", -0.206]
]}

Look up shrunken log2 fold change: "RRIRHRPPRLPRPRPRPAWSPRP"
-0.0185

Entry under review: "RRIRRRPPRLPRPRPRPDSIPRP" . Reported shrunken log2 fold change?
-0.199

What value of shrunken log2 fold change has been reported for the following sequence? "RRIRARPPRLPRPRPRPYSKPRP"
-0.91

What value of shrunken log2 fold change has been recorded for this entry: "RRIRGRPPRLPRPRPRPYICPRP"
-0.423

Quick check: shrunken log2 fold change of "RRIRNRPPRLPRPRPRPWWAPRP" ?
-0.0446
